settings: Ebola virus entry assay, ratio channel
Activity calls are given as the source filed them. The rule behind the calls is not given here. Peptide text beside a SMILES is read from it.
Parameter Measured: AC50

Study these solved cases before continuing.
Cc1ccc(CCn2c3c(c4cc(Cl)ccc42)CN(C)CC3)cn1	17.8 µM (active)
Nc1c(NC/C=C\COc2cc(CN3CCCCC3)ccn2)c(=O)c1=O	inactive
O=C(O)C(Cc1cc(I)c(O)c(I)c1)c1ccccc1 (centres undefined)	inactive
C[C@H]1CNCCc2ccc(Cl)cc21	inactive
NCCNC(=O)c1ccc(Cl)cn1	inactive

Would you kindly share the measured AC50 for CN1CCN(CCCN2c3ccccc3Sc3ccc(S(=O)(=O)N(C)C)cc32)CC1 ?
2.24 µM (active)

Would you kindly share the measured AC50 for CC(C)(C)OC(=O)c1ncn2c1[C@@H]1CCCN1C(=O)c1c(Br)cccc1-2 ?
inactive

Would you kindly share the measured AC50 for CC(=O)N[C@@H](CO)C(=O)N[C@@H](CC(=O)O)C(=O)N[C@@H](CCCCN)C(=O)N1CCC[C@H]1C(=O)O (Ac-SDKP-OH) ?
inactive

Hey, just so you know, these numbers are from PubChem BioAssay (NCATS).
